Assay: Cmax in C57BL/6J mouse CSF at 70 mg/kg, ip measured at 20 to 40 mins by CE-UV analysis
Type: ADME, organism-based, Cerebrospinal fluid
Design: dose 70 mg/kg, route intraperitoneal
experimental-endpoint: Cmax (µM)
Lab book: enter the figure in µM, no units written.

// Cmax lookup, key: Cn1c(CCCC(=O)O)nc2cc(N(CCCl)CCCl)ccc21 393

---

Experiment: AUC in C57BL/6J mouse serum at 70 mg/kg, ip by CE-UV analysis
Assay type: ADME, organism-based, Plasma
Parameters: dose 70 mg/kg, route intraperitoneal
experimental-endpoint: AUC (µM·h)
Lab book: enter the figure in µM·h, no units written.

// AUC lookup, key: Cn1c(CCCC(=O)O)nc2cc(N(CCCl)CCCl)ccc21 575
